Each recorded value in this set is attributed to ChEMBL document CHEMBL1961873.

target: Mitogen-activated protein kinase 13 (Homo sapiens) (UniProt O15264); details: at 1 µM;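 note: mean inhibition of p38delta, screened as part of the GSK PKIS kinase inhibitor set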
Sequence (O15264 whole entry): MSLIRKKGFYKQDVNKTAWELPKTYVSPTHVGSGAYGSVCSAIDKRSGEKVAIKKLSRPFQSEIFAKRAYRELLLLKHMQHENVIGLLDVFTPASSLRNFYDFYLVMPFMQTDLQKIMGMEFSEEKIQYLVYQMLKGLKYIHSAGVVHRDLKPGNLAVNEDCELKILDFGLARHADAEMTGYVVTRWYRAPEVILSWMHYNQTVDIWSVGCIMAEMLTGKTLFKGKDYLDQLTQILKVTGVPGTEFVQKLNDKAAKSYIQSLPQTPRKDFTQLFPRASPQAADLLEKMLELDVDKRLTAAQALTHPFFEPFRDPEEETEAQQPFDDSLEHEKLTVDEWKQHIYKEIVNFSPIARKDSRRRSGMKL
parameter_measured: inhibition (%)
Express the result in % but write the number alone.

Example results:
CNC(=O)c1cncc(/C=C/c2ccccc2C)c1
3.77
CCOc1ccc2c(-c3ccnc(Nc4cc(OC)cc(C(F)(F)F)c4)n3)cnn2n1
2.07
CC1(C)CC(n2cnc(-c3ccc(F)cc3)c2-c2ccnc(N)n2)CC(C)(C)N1
1.42
Fc1ccc(Nc2nccc(-c3c(-c4ccc(C(F)(F)F)cc4)nn4ncccc34)n2)cc1F
4.25
c1ccc(-c2n[nH]cc2-c2ccnc(-c3ccc(OCCn4ccnc4)cc3)c2)nc1
0.99
CS(=O)(=O)Nc1ccc(-c2cc(-c3ccccc3)cc(C(N)=O)c2N)cc1
0.64

Data request: Name the recorded inhibition for `COc1ccc2ncn(-c3cc(O[C@H](C)c4ccccc4C(F)(F)F)c(C(N)=O)s3)c2c1` .
Data returned: -1.08

Data request: Name the recorded inhibition for `COc1cc(N2CCN(C(C)C)CC2)ccc1Nc1nc(Nc2cccc3ncccc23)c2cc[nH]c2n1` .
Data returned: -2.15

Data request: Name the recorded inhibition for `Fc1cccc(COc2ccc(Nc3ncncc3C#Cc3ccccc3)cc2Cl)c1` .
Data returned: 3.79

Data request: Name the recorded inhibition for `COc1cc(Nc2ncc(-c3ccccc3)o2)cc(OC)c1` .
Data returned: 4.13

Data request: Name the recorded inhibition for `Cc1c2ccc(N(C)c3ccnc(Nc4cccc(S(N)(=O)=O)c4)n3)cc2nn1C` .
Data returned: 5.64

Data request: Name the recorded inhibition for CC1=C(C(=O)Nc2ccc3[nH]ncc3c2)C(c2ccc(F)cc2)N=C(c2ccc(C(F)(F)F)nc2)N1 (centres undefined) .
Data returned: 2.31

Data request: Name the recorded inhibition for `O=C(O[C@H]1CN[C@H](C#Cc2cc3ncnc(Nc4ccc5c(cnn5Cc5ccccc5)c4)c3s2)C1)N1CCOCC1` .
Data returned: -2.91

Data request: Name the recorded inhibition for `COc1cccc(Nc2nccc(-c3cnn4ncccc34)n2)c1` .
Data returned: 15.2

Data request: Name the recorded inhibition for `COc1cc2c(cc1Nc1nc(Nc3cccc(F)c3C(N)=O)c3cc[nH]c3n1)N(C(=O)CN1CCN(C(C)C)CC1)CC2` .
Data returned: 2.89

Data request: Name the recorded inhibition for `COc1ccc(-c2nn3ncccc3c2-c2ccnc(Nc3ccc(F)c(F)c3)n2)cc1` .
Data returned: 3.31

Data request: Name the recorded inhibition for `COc1ccc(Nc2ncc(-c3ccccc3)o2)cc1OC` .
Data returned: 2.02

----------
molecular target: Tyrosine-protein kinase Tec (Homo sapiens); conditions: at 0.1 µM
Description: GSK_PKIS: TEC mean inhibition at 0.1 uM [Nanosyn]
parameter_measured: inhibition (%)
Express the result in % but write the number alone.

CCCNc1cccc(-n2ncc3c(N/N=C/c4ccncc4)ncnc32)c1
2.52

Data request: Name the recorded inhibition for `COC(=O)Nc1nc2ccc(Oc3ccc(NC(=O)Nc4cc(C(F)(F)F)ccc4F)cc3)cc2s1` .
Data returned: 1.25

Data request: Name the recorded inhibition for `CCS(=O)(=O)c1ccc(OC)c(Nc2ncc(-c3cccc(C(C)=O)c3)o2)c1` .
Data returned: 6.22

Data request: Name the recorded inhibition for `Cc1c2ccc(N(C)c3ccnc(Nc4cccc(S(N)(=O)=O)c4)n3)cc2nn1C` .
Data returned: 13.8

----------
target: Ribosomal protein S6 kinase alpha-3 (Homo sapiens); settings: at 0.1 µM;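 note: reported value is a mean inhibition figure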
Listed here are compounds together with their documented inhibition.
Express the result in % but write the number alone.

COc1cc(Nc2ncc(-c3ccccc3)o2)cc(OC)c1
1.01

Now for another entry.
Data request: Name the recorded inhibition for `Cc1cc(O)cc(C)c1/C=C/c1cncc(C(N)=O)c1` .
Data returned: 1.07
